# Tested on: A549
# protocol notes: NCI tumour cell line growth inhibition, 48 h
Active and inactive are the calls of the source. Cut-off read from the data, not from the text of the source: active = GI50 up to about 1.1 µM and inactive = higher.
measurement type: GI50

1) N#Cc1c(N2CCCC2)ncn(-c2ccccc2)c1=S | > 100 µM (inactive)
2) CC(C)(Oc1ccc2c(=O)cc(-c3ccccc3)oc2c1)C(=O)N1CCN(c2ccccc2)CC1 | 4.95 µM (inactive)
3) CNC(=O)N(CCCCC(NC(C)=O)C(=O)NCc1ccccc1)Cc1ccccc1 (stereo not given) | > 100 µM (inactive)
4) Cc1cc(N(CCC#N)CCC#N)ccc1/C=C1N=C(/C=C\c2ccccc2)N(c2ccc(Cl)cc2)C\1=O | > 39.9 µM (inactive)
5) COc1ccc(C(C#N)NNc2nc(C)cc(O)n2)cc1OC (stereo not given) | > 100 µM (inactive)
6) Cc1ccc2c(c1)C(=O)C(Cc1ccccc1C(=O)O)C2 (stereo not given) | > 100 µM (inactive)
7) C1CCN(CCC2CCCCN2)CC1 (stereo not given) | > 100 µM (inactive)
8) Cc1nnc(-n2c(O)cc(=O)n(-c3ccccc3)c2=S)nc1/C=C/c1ccc(N(C)C)cc1 | 8.63 µM (inactive)
9) COc1ccc(C2=C(Cl)c3cc(OC)c(OC)cc3C2Cl)cc1OC (stereo not given) | 19.5 µM (inactive)
10) O=C(O)C(CSC(c1ccccc1)(c1ccccc1)c1ccccc1)/N=C/c1cccs1 (stereo not given) | 3.95 µM (inactive)

====

# System: TK-10
# protocol notes: NCI tumour cell line growth inhibition, 48 h
Active and inactive are the calls of the source. No stated cut-off is given here; in the data, active = GI50 up to about 1.1 µM and inactive = higher.
measurement type: GI50

1) Cc1nc(Nc2ccccc2)sc1C(=O)CC(=O)C(=O)Nc1c(C(C)C)cccc1C(C)C | > 100 µM (inactive)
2) Oc1c(CN2CCN(c3ccccc3)CC2)cc(Br)c2cccnc12 | 3.61 µM (inactive)
3) Nc1cccc2cc(S(=O)(=O)Nc3ccc(C(=O)O)cc3)ccc12 | > 100 µM (inactive)
4) Cc1cc2[nH]c3c(C#N)c(-c4ccccc4)c(/C=N/c4ccc(F)cc4)c(=O)n3c2cc1C | > 100 µM (inactive)
5) COC(=O)/C=C1\C(=O)Nc2ccc(Br)cc21 | 1.56 µM (inactive)
6) Cc1cc(C)nc(NC(=O)c2ccc(Br)s2)c1 | > 100 µM (inactive)
7) COc1cc2cc3c4c(cc(OC)c(OC)c4c2cc1OC)CCN3C(=O)OCCN1CCNCC1 | 15 µM (inactive)
8) O=C(Cn1c(=O)ccn(C2OC(CO)C(O)C2F)c1=O)c1ccc(F)cc1 (stereo unspecified) | > 100 µM (inactive)
9) CCOC(=O)CC[C@H](N)C(=O)N[C@@H](Cc1ccc(N(CCCl)CCCl)cc1)C(=O)OCC | 1.47 µM (inactive)
10) CCc1ccccc1-n1c2nc(=O)n(C)c(=O)c-2nc2ccccc21 | 8.95 µM (inactive)
11) CCOP(=O)(OCC)C(c1ccc(F)cc1)N(C(=O)NC(F)(F)F)c1ccc(OC)cc1 (stereo unspecified) | > 100 µM (inactive)
12) NC(=O)c1ncn2c(=O)n(CCCl)nnc12 [MITOZOLOMIDE] | 229 µM (inactive)
13) COc1ccc(C(=O)C(CC2C(=O)CC(C)(C)C(C(=O)C(=O)Nc3c(C)cccc3C)C2=O)c2ccc(OC)cc2)cc1 (stereo unspecified) | > 100 µM (inactive)
14) CC(NNC(=O)c1ccncc1)c1cccc(C(F)(F)F)c1 (stereo unspecified) | > 100 µM (inactive)
15) CCN1CCC(O)(c2ccc(O)cc2)C(C(=O)c2ccc(O)cc2)C1 (stereo unspecified) | 17.3 µM (inactive)
16) COc1cc(Br)c(C2OCCCO2)cc1OCc1ccccc1 | > 100 µM (inactive)
17) COc1ccc2c(c1)CCc1cnn(C3OC(COC(C)=O)C(OC(C)=O)C(OC(C)=O)C3OC(C)=O)c1-2 (stereo unspecified) | > 100 µM (inactive)
18) OC1c2ccccc2CCC1C(O)(C(F)(F)F)C(F)(F)F (stereo unspecified) | > 100 µM (inactive)
19) COc1ccc(-n2c3c(c4c(CN(C)C)c(O)ccc42)C(=O)c2ccccc2C3=O)cc1 | 17.6 µM (inactive)
20) N#CCN1CCCCCc2ccccc21 | > 100 µM (inactive)
21) CCn1c2ccc(O)c(C(=O)OC)c2c2cc3ccccc3c(O)c21 | 15.9 µM (inactive)

====

# System: IGROV-1
# protocol notes: NCI tumour cell line growth inhibition, 48 h
The source made the active and inactive calls. No stated cut-off is given here; in the data, active = GI50 up to about 1.1 µM and inactive = higher. Starred links: 1 amine or outer side, 2 acyl side, 3 side chain; linkers in the order of their positions; H or OH if unused. Non-standard residues stand in square brackets, D forms with d. Residues, ends and D or L forms follow the SMILES beside them. X41 = CSCCCC(N[*:1])C(=O)[*:2]
measurement type: GI50

1) CC12c3c4ccc(C=O)c3Oc3ccc(C=O)c(c31)Oc1ccc(C=O)c(c12)O4 | > 25 µM (inactive)
2) CCc1ccccc1-n1c2nc(=O)n(C)c(=O)c-2nc2ccccc21 | 17.5 µM (inactive)
3) N#Cc1c(N2CCCC2)ncn(-c2ccccc2)c1=S | > 100 µM (inactive)
4) CC(C)=C[C@H]1C[C@H](C)[C@H]2CC[C@H](C)c3c2c1c(C)c1ncoc31 | 13.9 µM (inactive)
5) Cc1oc2nc1C(=O)NCc1nc(cs1)C(=O)N[C@H](C(C)C)c1nc(cs1)C(=O)N[C@H]2C | 29.9 µM (inactive)
6) C1CCCCc2nc3c(nc2CCC1)c1nc2c(nc1c1nc4c(nc31)CCCCCCCC4)CCCCCCCC2 | > 100 µM (inactive)
7) CC1(C)C2CC1C(/C=N\OCC(=O)O)=CC2=O (stereo not drawn) | > 100 µM (inactive)
8) Nc1ccc(S(=O)(=O)c2ccc(NCN3C(=O)NC(=O)C(=O)C3=O)cc2)cc1 | > 100 µM (inactive)
9) O=[N+]([O-])CCc1cccc([N+](=O)[O-])c1 | > 100 µM (inactive)
10) Cc1cc2c(cc1Cl)SSc1cc(Cl)c(C)cc1S(=O)(=O)Nc1nc(N)nn1C(O)n1nc(N)nc1NS2(=O)=O | > 10 µM (inactive)
11) CCCCNC(=S)c1ccc(OC(=O)Nc2ccc(Cl)cc2)cc1 | 3.02 µM (inactive)
12) Cc1cc2[nH]c3c(C#N)c(-c4ccccc4)c(/C=N/c4ccc(F)cc4)c(=O)n3c2cc1C | > 100 µM (inactive)
13) COc1cc(NS(C)(=O)=O)ccc1NCc1c2ccccc2nc2ccccc12 | 29.4 µM (inactive)
14) O=S(=O)(c1ccc(/N=C2\NC(c3ccc(O)cc3)(c3ccccc3O)c3ccccc32)cc1)c1ccc(/N=C2/NC(c3ccc(O)cc3)(c3ccccc3O)c3ccccc32)cc1 (stereo not drawn) | 2.68 µM (inactive)
15) CCOP(=O)(OCC)C(c1ccc(F)cc1)N(C(=O)NC(F)(F)F)c1ccc(OC)cc1 (stereo not drawn) | > 100 µM (inactive)
16) CSCCCC(NC(=O)CNC(=O)C1CCCN1C(=O)C(Cc1ccc(O)cc1)NC(=O)C(Cc1ccccc1)NC(=O)C(CCCNC(=N)N)NC(=O)C(CC(=O)O)NC(=O)C1CCCN1C(=O)C(CC(=O)O)NC(=O)C1CCCN1C(=O)C1CCCN1C(=O)CN)C(N)=O (stereo not drawn) (H-GPPDPDRFYPG[X41]-NH2; configuration not given here) | > 50 µM (inactive)
17) COC(=O)/C=C1/N=C(N(C)/N=C/c2ccccc2)NC1=O | > 100 µM (inactive)
18) COC(=O)[C@H](C)N1C(=O)N[C@@H](C(C)C)C1=O | > 100 µM (inactive)
19) CC(=O)Nc1ccc(/C=C2\N=C(c3ccccc3)OC2=O)cc1 | > 31.6 µM (inactive)
20) O=[N+]([O-])CC(SCc1ccccc1)c1ccc2c(c1)OCO2 (stereo not drawn) | 5.6 µM (inactive)
21) Clc1ccccc1C(Nc1cnccn1)Nc1cnccn1 | > 100 µM (inactive)
22) COc1c(NC(C)=O)c2ccccc2c2ccccc12 | > 100 µM (inactive)
23) O=[N+]([O-])C(C(Cl)=C(Cl)Cl)=C(N(Cc1ccccc1)Cc1ccccc1)N(Cc1ccccc1)Cc1ccccc1 | 45.1 µM (inactive)
24) CC[As](CC)SCC1OC(OC(C)=O)C(OC(C)=O)C(OC(C)=O)C1OC(C)=O (stereo not drawn) | 18.3 µM (inactive)
25) O=c1[nH]c(N/N=C\C(O)C(O)C(O)C(O)CO)nc2ccccc12 (stereo not drawn) | > 100 µM (inactive)
26) CC1SC2=NC3=C(c4ccccc4C3=O)C(c3ccccc3Cl)N2C1=O (stereo not drawn) | > 100 µM (inactive)
27) Cc1ccc(-c2n[nH]c(=O)n2N)cc1 | > 100 µM (inactive)
28) O=c1c2c3c(sc2nc2n1N=CN(c1ccc(F)cc1)C2)CCCC3 | > 100 µM (inactive)
29) CC(=O)N1c2ccccc2C2=CC3C4C(=O)N(c5ccccc5)C(=O)C4C21C1C(=O)N(c2ccccc2)C(=O)C31 (stereo not drawn) | 75.7 µM (inactive)
30) Cc1cc(C)nc(NC(=O)c2ccc(Br)s2)c1 | > 100 µM (inactive)
31) COc1ccc([C@]23CCN4COC[C@@H]([C@H]42)C2(CC3)OCC(C)(C)CO2)cc1OC | > 100 µM (inactive)
32) CN(C)CCn1nc(N)c2nc3cc(C(F)(F)F)ccc3nc21 | 41.5 µM (inactive)
33) N#CC1C[C@@H]2CC3(CCC2CN1C(=O)c1ccccc1)OCCO3 (stereo partly drawn) | > 100 µM (inactive)
34) Cc1cc(N(CCC#N)CCC#N)ccc1/C=C1N=C(/C=C\c2ccccc2)N(c2ccc(Cl)cc2)C\1=O | 47.3 µM (inactive)
35) Cc1nc2sc(C(=O)c3ccc(Cl)cc3)c(N)c2c(-c2ccccc2Cl)c1C(=O)Nc1ccccc1 | 19 µM (inactive)
36) CC1=CCS(=O)(=O)C1C(O)C1=C(C)CCCC1(C)C (stereo not drawn) | > 100 µM (inactive)
37) NC1=NN(c2ccccc2)C(=O)C1C(=O)C(=O)Nc1cccc(C(F)(F)F)c1 (stereo not drawn) | > 100 µM (inactive)
38) CSc1nc2c(nc(N)n2C2OCC(O)C(O)C2O)c(=O)[nH]1 (stereo not drawn) | > 100 µM (inactive)
